Data provenance is patent US5817490A.

# Format: physicochemical
# Conditions used: 500 ppm standard, 715 minutes
For each record, write down the corresponding Amount Found.
Give bare numbers, in ppm.

The examples below pair each entry with its known result.
O=C(O)C(=O)[C@@H](O)[C@H](O)[C@@H](O)CO    493
CCCCOC(=O)C(=O)[C@@H](O)[C@H](O)[C@@H](O)CO [butyl-KLG, butyl 2-keto-L-gulonate]    499
COC(=O)C(=O)[C@@H](O)[C@H](O)[C@@H](O)CO [MeKLG, methyl-2-keto-L-gulonate]    495

Using the record for O=C1O[C@H]([C@@H](O)CO)C(O)=C1O , report its Amount Found.
473
